Entry source: patent US9260467B2

Provide the recorded rIP for the entries that follow.
# assayed_target: Siglec-2 (CD22) (Homo sapiens, UniProt P20273)
# Sequence (P20273 20-847): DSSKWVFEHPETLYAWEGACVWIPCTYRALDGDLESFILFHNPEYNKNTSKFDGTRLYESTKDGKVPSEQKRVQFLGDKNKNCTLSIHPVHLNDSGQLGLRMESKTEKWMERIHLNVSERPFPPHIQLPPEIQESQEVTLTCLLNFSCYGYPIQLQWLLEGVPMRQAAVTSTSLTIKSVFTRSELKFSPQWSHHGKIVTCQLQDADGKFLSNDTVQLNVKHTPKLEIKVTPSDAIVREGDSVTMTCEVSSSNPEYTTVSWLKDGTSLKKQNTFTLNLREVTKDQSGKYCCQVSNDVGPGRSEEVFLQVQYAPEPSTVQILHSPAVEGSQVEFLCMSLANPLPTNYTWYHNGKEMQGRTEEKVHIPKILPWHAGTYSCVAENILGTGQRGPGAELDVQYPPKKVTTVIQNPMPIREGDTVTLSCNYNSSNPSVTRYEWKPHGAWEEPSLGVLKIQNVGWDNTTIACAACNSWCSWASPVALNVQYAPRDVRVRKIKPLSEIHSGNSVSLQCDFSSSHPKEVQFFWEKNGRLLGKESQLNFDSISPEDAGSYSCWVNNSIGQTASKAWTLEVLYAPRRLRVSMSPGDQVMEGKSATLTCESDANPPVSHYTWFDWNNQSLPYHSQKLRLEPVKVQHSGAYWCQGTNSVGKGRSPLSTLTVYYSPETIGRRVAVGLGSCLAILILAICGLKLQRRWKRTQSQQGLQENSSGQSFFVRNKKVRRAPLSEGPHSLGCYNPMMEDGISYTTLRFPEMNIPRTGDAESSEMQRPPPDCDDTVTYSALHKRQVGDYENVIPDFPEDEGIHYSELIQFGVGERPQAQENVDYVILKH
# method_summary: new affinity assay: displacement of biotinylated compound 155 from sialidase-treated Daudi cells, FACS with streptavidin-PE
# Assay type: binding
# Parameters: endogenous in cells; host or cells: Daudi (human B-cell lymphoma line)
# measurement_setup: Table II; rIP values set relative to compound 38; Daudi cells, displacement of compound 155
Numbers only.

See these solved cases before continuing.
{"smiles_input": "CC(=O)N[C@H]1[C@H]([C@H](O)[C@H](O)CNC(=O)c2ccc(-c3ccccc3)cc2)O[C@@](OCc2cn(CCNC(=O)c3ccc(C(=O)NCCn4cc(CO[C@]5(C(=O)[O-])C[C@H](O)[C@@H](NC(C)=O)[C@H]([C@H](O)[C@H](O)CNC(=O)c6ccc(-c7ccccc7)cc6)O5)nn4)cc3)nn2)(C(=O)[O-])C[C@@H]1O.[Na+].[Na+]", "metric": "rIP", "reported_measurement": 8}
{"smiles_input": "CC(=O)N[C@H]1[C@H]([C@H](O)[C@H](O)CNC(=O)c2ccc(-c3ccccc3)cc2)O[C@@](OCCCSCCNC(=O)c2ccc(C(=O)NCCSCCCO[C@]3(C(=O)[O-])C[C@H](O)[C@@H](NC(C)=O)[C@H]([C@H](O)[C@H](O)CNC(=O)c4ccc(-c5ccccc5)cc4)O3)cc2)(C(=O)[O-])C[C@@H]1O.[Na+].[Na+]", "metric": "rIP", "reported_measurement": 2979}

Q: Would you kindly share the measured rIP for CC(=O)N[C@H]1[C@H]([C@H](O)[C@H](O)CNC(=O)c2ccc(-c3ccccc3)cc2)O[C@@](OCCCSCCNC(=O)c2ccccc2-c2ccccc2C(=O)NCCSCCCO[C@]2(C(=O)[O-])C[C@H](O)[C@@H](NC(C)=O)[C@H]([C@H](O)[C@H](O)CNC(=O)c3ccc(-c4ccccc4)cc3)O2)(C(=O)[O-])C[C@@H]1O.[Na+].[Na+] ?
A: 717
